The following compounds are shown together with reported MIC values.
- Test system: Escherichia
- Measurement protocol: Antimicrobial activity against Escherichia ATCC 25922 after 16 hrs
- Type: functional
- Test settings: ATCC 25922, 16 h

// below: answered compounds
# Chemical smiles, Tested target, MIC
records = [
    ("NCCCC[C@@H](CN(CC(N)=O)S(=O)(=O)CCN)NC(=O)CN(C[C@H](Cc1ccccc1)NC(=O)CN(C[C@H](Cc1ccccc1)NC(=O)CN(C[C@H](Cc1ccccc1)NC(=O)CN(C[C@H](CCCCN)NC(=O)CN(C[C@H](Cc1ccccc1)NC(=O)CN(C[C@H](Cc1ccccc1)NC(=O)CN(C[C@@H](N)Cc1ccccc1)S(=O)(=O)Cc1ccccc1)S(=O)(=O)CCN)S(=O)(=O)Cc1ccccc1)S(=O)(=O)CCN)S(=O)(=O)Cc1ccccc1)S(=O)(=O)CCN)S(=O)(=O)Cc1ccccc1", "Escherichia", "4 µg/mL"),
    ("NCCCC[C@@H](CN(CC(N)=O)S(=O)(=O)CCN)NC(=O)CN(C[C@@H](N)Cc1ccccc1)S(=O)(=O)Cc1ccccc1", "Escherichia", "> 50 µg/mL"),
]

Switching to the query record.
Reported MIC (Escherichia) for entry "CC(=O)N[C@@H](CC(C)C)CN(CC(=O)N[C@@H](CC(C)C)CN(CC(=O)N[C@@H](CC(C)C)CN(CC(=O)N[C@@H](CC(C)C)CN(CC(=O)N[C@@H](CC(C)C)CN(CC(=O)N[C@@H](CC(C)C)CN(CC(=O)N[C@@H](CC(C)C)CN(CC(=O)N[C@@H](CC(C)C)CN(CC(N)=O)S(=O)(=O)CCN)S(=O)(=O)CCN)S(=O)(=O)CCN)S(=O)(=O)CCN)S(=O)(=O)CCN)S(=O)(=O)CCN)S(=O)(=O)CCN)S(=O)(=O)CCN" is > 50 µg/mL

###

Let's look at some molecules and their measured MIC.
- Test system: Pseudomonas aeruginosa
- Measurement protocol: Antimicrobial activity against Pseudomonas aeruginosa ATCC 27853 after 16 hrs
- Assay type: functional
- Test settings: ATCC 27853, 16 h

A selection of reference data follows.
# Chemical smiles, MIC
records = [
    ("CC(C)C[C@H](N)CN(CC(=O)N[C@@H](CC(C)C)CN(CC(=O)N[C@@H](CC(C)C)CN(CC(=O)N[C@@H](CCCCN)CN(CC(=O)N[C@@H](CC(C)C)CN(CC(=O)N[C@@H](CC(C)C)CN(CC(=O)N[C@@H](CC(C)C)CN(CC(=O)N[C@@H](CCCCN)CN(CC(N)=O)S(=O)(=O)CCN)S(=O)(=O)CC(C)C)S(=O)(=O)CCN)S(=O)(=O)CC(C)C)S(=O)(=O)CCN)S(=O)(=O)CC(C)C)S(=O)(=O)CCN)S(=O)(=O)CC(C)C", "50 µg/mL"),
    ("CC(=O)N[C@@H](CCCCN)CN(CC(=O)N[C@@H](Cc1ccccc1)CN(CC(=O)N[C@@H](CCCCN)CN(CC(=O)N[C@@H](Cc1ccccc1)CN(CC(=O)N[C@@H](CCCCN)CN(CC(=O)N[C@@H](Cc1ccccc1)CN(CC(=O)N[C@@H](CCCCN)CN(CC(=O)N[C@@H](Cc1ccccc1)CN(CC(N)=O)S(=O)(=O)Cc1ccccc1)S(=O)(=O)CCN)S(=O)(=O)Cc1ccccc1)S(=O)(=O)Cc1ccccc1)S(=O)(=O)Cc1ccccc1)S(=O)(=O)CCN)S(=O)(=O)Cc1ccccc1)S(=O)(=O)Cc1ccccc1", "20 µg/mL"),
    ("NCCCC[C@@H](CN(CC(N)=O)S(=O)(=O)CCN)NC(=O)CN(C[C@H](Cc1ccccc1)NC(=O)CN(C[C@H](Cc1ccccc1)NC(=O)CN(C[C@@H](N)Cc1ccccc1)S(=O)(=O)Cc1ccccc1)S(=O)(=O)CCN)S(=O)(=O)Cc1ccccc1", "> 50 µg/mL"),
    ("CC(=O)N[C@@H](Cc1ccccc1)CN(CC(=O)N[C@@H](Cc1ccccc1)CN(CC(=O)N[C@@H](Cc1ccccc1)CN(CC(=O)N[C@@H](Cc1ccccc1)CN(CC(=O)N[C@@H](Cc1ccccc1)CN(CC(=O)N[C@@H](Cc1ccccc1)CN(CC(=O)N[C@@H](Cc1ccccc1)CN(CC(=O)N[C@@H](Cc1ccccc1)CN(CC(N)=O)S(=O)(=O)CCN)S(=O)(=O)CCN)S(=O)(=O)CCN)S(=O)(=O)CCN)S(=O)(=O)CCN)S(=O)(=O)CCN)S(=O)(=O)CCN)S(=O)(=O)CCN", "> 50 µg/mL"),
]

Record "CC(=O)N[C@@H](CCCCN)CN(CC(=O)N[C@@H](Cc1ccccc1)CN(CC(=O)N[C@@H](CCCCN)CN(CC(=O)N[C@@H](Cc1ccccc1)CN(CC(=O)N[C@@H](CCCCN)CN(CC(=O)N[C@@H](Cc1ccccc1)CN(CC(=O)N[C@@H](CCCCN)CN(CC(=O)N[C@@H](Cc1ccccc1)CN(CC(N)=O)S(=O)(=O)Cc1ccccc1)S(=O)(=O)CCN)S(=O)(=O)Cc1ccccc1)S(=O)(=O)CCN)S(=O)(=O)Cc1ccccc1)S(=O)(=O)CCN)S(=O)(=O)Cc1ccccc1)S(=O)(=O)CCN" / Pseudomonas aeruginosa, MIC recorded as > 50 µg/mL

Query "CC(=O)N[C@@H](Cc1ccccc1)CN(CC(=O)N[C@@H](Cc1ccccc1)CN(CC(=O)N[C@@H](Cc1ccccc1)CN(CC(=O)N[C@@H](CCCCN)CN(CC(=O)N[C@@H](Cc1ccccc1)CN(CC(=O)N[C@@H](Cc1ccccc1)CN(CC(=O)N[C@@H](Cc1ccccc1)CN(CC(=O)N[C@@H](CCCCN)CN(CC(N)=O)S(=O)(=O)CCN)S(=O)(=O)Cc1ccccc1)S(=O)(=O)CCN)S(=O)(=O)Cc1ccccc1)S(=O)(=O)CCN)S(=O)(=O)Cc1ccccc1)S(=O)(=O)CCN)S(=O)(=O)Cc1ccccc1" on Pseudomonas aeruginosa; MIC returned: 6 µg/mL
